# Test system: rodent lifetime carcinogenesis bioassay, tumor incidence TD50
# Method: carcinogenic potency in animals, long-term in vivo studies, CPDB compilation (AID 1745844)
# Protocol conditions: mouse; strain B6C3F1; males; inhaled; site: Harderian gland; lesion: adenoma + adenoma, bilateral; dosed 104 weeks; study length 104 weeks
Measured endpoint: TD50

*Q* Let me know recorded TD50 for "C=CC(=C)Cl" , thanks.
*A* 79.5 mg/kg/day

----------
# Tested on: rodent lifetime carcinogenesis bioassay, tumor incidence TD50
# Method: carcinogenic potency in animals, long-term in vivo studies, CPDB compilation (AID 1745844)
# Protocol conditions: mouse; strain B6C3F1; males; in feed; site: any site (literature study); lesion: several types; types named in the paper; dosed 103 weeks; study length 103 weeks
The source made the active and inactive calls. The rule behind the calls is not given here.
Please provide measured TD50 for the entries that follow.

Worked cases, TD50 given:
# Molecule, Target or test system, TD50
rows = [
    ("O=S(=O)(O)c1ccc(N=Nc2c(O)ccc3cc(S(=O)(=O)O)ccc23)cc1", "rodent lifetime carcinogenesis bioassay, tumor incidence TD50", "17800 mg/kg/day"),
    ("CN(C)C(=O)Nc1cccc(C(F)(F)F)c1", "rodent lifetime carcinogenesis bioassay, tumor incidence TD50", "265 mg/kg/day"),
]

Hi team, please reply with TD50 for each item in this list.
1. Brc1c(Br)c(Br)c(Oc2c(Br)c(Br)c(Br)c(Br)c2Br)c(Br)c1Br
2. CCOC(=O)CC(SP(=O)(OC)OC)C(=O)OCC (stereo unspecified)
3. CNC(=O)ON=CC(C)(C)SC
4. COc1ccc([N+](=O)[O-])cc1N=Nc1c(O)c(C(=O)Nc2cccc([N+](=O)[O-])c2)cc2ccccc12

*A*
1: 9060 mg/kg/day; 2: 472 mg/kg/day (inactive); 3: 1.74 mg/kg/day (inactive); 4: 20200 mg/kg/day (inactive)

----------
# Tested on: rodent lifetime carcinogenesis bioassay, tumor incidence TD50
# Method: carcinogenic potency in animals, long-term in vivo studies, CPDB compilation (AID 1745844)
# Protocol conditions: mouse; strain B6C3F1; males; in feed; site: Harderian gland; lesion: adenoma + adenoma, bilateral; dosed 104 weeks; study length 105 weeks
Measured endpoint: TD50 (mg/kg/day)
Give bare numbers, in mg/kg/day.

*Q* Let me know recorded TD50 for "OCC(CO)(CBr)CBr" , thanks.
*A* 191

----------
# Tested on: rodent lifetime carcinogenesis bioassay, tumor incidence TD50
# Method: carcinogenic potency in animals, long-term in vivo studies, CPDB compilation (AID 1745844)
# Protocol conditions: mouse; strain B6C3F1; males; inhaled; site: forestomach; lesion: squamous-cell carcinoma; dosed 26 weeks; study length 53 weeks
Measured endpoint: TD50
Phrase the answer as number then unit, nothing more needed.

*Q* Let me know recorded TD50 for "C=CC(=C)C" , thanks.
*A* 4850 mg/kg/day

----------
# System: rodent lifetime carcinogenesis bioassay, tumor incidence TD50
# Method: carcinogenic potency in animals, long-term in vivo studies, CPDB compilation (AID 1745844)
# Protocol conditions: mouse; strain B6C3F1; females; in feed; site: lung; lesion: alveolar/bronchiolar adenoma; dosed 104 weeks; study length 104 weeks
Measured endpoint: TD50

*Q* Let me know recorded TD50 for "Nc1c(Br)cc(Br)c2c1C(=O)c1ccccc1C2=O" , thanks.
*A* 1990 mg/kg/day

----------
# Test system: rodent lifetime carcinogenesis bioassay, tumor incidence TD50
# Method: carcinogenic potency in animals, long-term in vivo studies, CPDB compilation (AID 1745844)
# Protocol conditions: rat; strain Fischer 344; males; in feed; site: any site (literature study); lesion: benign tumor; dosed 103 weeks; study length 104 weeks
Activity calls are given as the source filed them. The rule behind the calls is not given here.
Measured endpoint: TD50

*Q* Quote TD50 with test system rodent lifetime carcinogenesis bioassay, tumor incidence TD50 for "Cc1ccc(/C(=C\CN2CCCC2)c2ccccn2)cc1"
*A* 1170 mg/kg/day (inactive)

----------
# System: rodent lifetime carcinogenesis bioassay, tumor incidence TD50
# Method: carcinogenic potency in animals, long-term in vivo studies, CPDB compilation (AID 1745844)
# Protocol conditions: rat; strain F344/DuCrj; females; in drinking water; site: submandibular salivary gland; lesion: squamous-cell carcinoma; dosed 104 weeks; study length 104 weeks
Measured endpoint: TD50

*Q* Let me know recorded TD50 for "[K+]" , thanks.
*A* 560 mg/kg/day

----------
# System: rodent lifetime carcinogenesis bioassay, tumor incidence TD50
# Method: carcinogenic potency in animals, long-term in vivo studies, CPDB compilation (AID 1745844)
# Protocol conditions: mouse; strain Swiss; females; in feed; site: urinary bladder; lesion: carcinoma; dosed 33 weeks; study length 52 weeks
Measured endpoint: TD50

*Q* Let me know recorded TD50 for "O=CNc1nc(-c2ccc([N+](=O)[O-])o2)cs1" , thanks.
*A* 19.8 mg/kg/day

----------
# Tested on: rodent lifetime carcinogenesis bioassay, tumor incidence TD50
# Method: carcinogenic potency in animals, long-term in vivo studies, CPDB compilation (AID 1745844)
# Protocol conditions: mouse; strain CD-1 HaM/ICR; females; in feed; site: liver; lesion: hepatoma; dosed 77 weeks; study length 90 weeks
Measured endpoint: TD50

# Input smiles, Result
data = [
    ("Nc1ccccc1N", "611 mg/kg/day"),
    ("Cc1ccc(N)cc1N", "206 mg/kg/day"),
]

Continue with the molecule presented below.
*Q* Let me know recorded TD50 for "Nc1ccc(Cc2ccc(N)c(Cl)c2)cc1Cl" , thanks.
*A* 66.6 mg/kg/day

----------
# System: rodent lifetime carcinogenesis bioassay, tumor incidence TD50
# Method: carcinogenic potency in animals, long-term in vivo studies, CPDB compilation (AID 1745844)
# Protocol conditions: mouse; strain B6AKF1; males; oral dosing; site: liver; lesion: hepatoma; dosed 79 weeks; study length 79 weeks
Measured endpoint: TD50

# Molecule, TD50
data = [
    ("OCCN(CCO)C(=S)S", "41.5 mg/kg/day"),
]

Continue with the molecule presented below.
*Q* Quote TD50 with test system rodent lifetime carcinogenesis bioassay, tumor incidence TD50 for C=C1C(C)(C)[C@@]2(Cl)C(Cl)[C@]1(Cl)C(Cl)(Cl)C2(Cl)Cl (some centres not stated)
*A* 0.644 mg/kg/day

----------
# Tested on: rodent lifetime carcinogenesis bioassay, tumor incidence TD50
# Method: carcinogenic potency in animals, long-term in vivo studies, CPDB compilation (AID 1745844)
# Protocol conditions: mouse; strain Swiss; females; by gavage; site: several sites; sites named in the paper; lesion: carcinoma; dosed 83 weeks; study length 83 weeks
Measured endpoint: TD50

*Q* Let me know recorded TD50 for "NNC(=O)c1ccncc1" , thanks.
*A* 53.1 mg/kg/day

----------
# Test system: rodent lifetime carcinogenesis bioassay, tumor incidence TD50
# Method: carcinogenic potency in animals, long-term in vivo studies, CPDB compilation (AID 1745844)
# Protocol conditions: mouse; strain Swiss; females; in drinking water; site: all sites; lesion: lymphoma; dosed 50 weeks; study length 51 weeks
Measured endpoint: TD50

*Q* Let me know recorded TD50 for "NC(=O)N(CCO)N=O" , thanks.
*A* 0.603 mg/kg/day

----------
# System: rodent lifetime carcinogenesis bioassay, tumor incidence TD50
# Method: carcinogenic potency in animals, long-term in vivo studies, CPDB compilation (AID 1745844)
# Protocol conditions: mouse; strain B6C3F1; males; i.p.; site: any site (literature study); lesion: several types; types named in the paper; dosed 52 weeks; study length 83 weeks
Measured endpoint: TD50 (mg/kg/day)
Give bare numbers, in mg/kg/day.

*Q* Let me know recorded TD50 for "S=P(N1CC1)(N1CC1)N1CC1" , thanks.
*A* 0.069

----------
# Tested on: rodent lifetime carcinogenesis bioassay, tumor incidence TD50
# Method: carcinogenic potency in animals, long-term in vivo studies, CPDB compilation (AID 1745844)
# Protocol conditions: rat; strain Fischer 344; males; oral dosing; site: ear + Zymbal's gland; lesion: squamous-cell carcinoma; dosed 78 weeks; study length 104 weeks
Measured endpoint: TD50

*Q* Quote TD50 with test system rodent lifetime carcinogenesis bioassay, tumor incidence TD50 for "COc1cc(-c2ccc(N=C=O)c(OC)c2)ccc1N=C=O"
*A* 7010 mg/kg/day

----------
# Test system: rodent lifetime carcinogenesis bioassay, tumor incidence TD50
# Method: carcinogenic potency in animals, long-term in vivo studies, CPDB compilation (AID 1745844)
# Protocol conditions: mouse; strain B6C3F1; females; in feed; site: lung; lesion: alveolar/bronchiolar adenoma + alveolar/bronchiolar carcinoma; dosed 94 weeks; study length 94 weeks
Measured endpoint: TD50 (mg/kg/day)
Numbers only, in mg/kg/day.

*Q* Quote TD50 with test system rodent lifetime carcinogenesis bioassay, tumor incidence TD50 for "NC(=S)NNC(N)=S"
*A* 22900

----------
# System: rodent lifetime carcinogenesis bioassay, tumor incidence TD50
# Method: carcinogenic potency in animals, long-term in vivo studies, CPDB compilation (AID 1745844)
# Protocol conditions: hamster; strain Syrian Golden; females; inhaled; site: mammary gland; lesion: carcinoma; dosed 78 weeks; study length 104 weeks
Measured endpoint: TD50

*Q* Let me know recorded TD50 for "C=CCl" , thanks.
*A* 61 mg/kg/day
